assay.explanation: NCI Yeast Anticancer Drug Screen. Data for the rad50 strain (AID 155);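 also: 0% = growth of vehicle-only cultures of the same strain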
test.parameters: S. cerevisiae rad50 strain growth inhibition; at 50.0 µM
Compounds without any hit were thinned out: in the full panel of roughly 79,000, 15% have a hit. Calls of active or inactive are those of the source. Rule as the data show it: active = growth inhibition above about 70%; inactive = the rest.
One label from this list, please: class 1 (active), class 0 (inactive)

Query: Hey, what did the test say about O=C(O)C(Cc1ccccc1)NC(c1ccc(Cl)cc1)P(=O)(O)O (configuration not stated) ?
Response: class 0

Query: Hey, what did the test say about COC(=O)c1ccccc1NN=Nc1ccccc1Cl ?
Response: class 0

Query: Hey, what did the test say about CCOC(=O)c1ccc(NC(=O)c2cccc(Cl)c2)cc1 ?
Response: class 0

Query: Hey, what did the test say about CCCc1n[nH]c(=S)n1N1C(=S)NC(C)(C)C=C1C ?
Response: class 0

Query: Hey, what did the test say about CCCCCCCCCCC(CCCCCCCCCC)=NN=C(CCCCCCCCCC)CCCCCCCCCC ?
Response: class 0

Query: Hey, what did the test say about CCCCCC1OC1CC1OC1CCCCCCCC(=O)O (configuration not stated) ?
Response: class 0

Query: Hey, what did the test say about COc1cccc(C=NC23CC4CC(CC(C4)C2)C3)c1 ?
Response: class 0

Query: Hey, what did the test say about COc1ccc(CCn2nccc2C)cc1 ?
Response: class 0

Query: Hey, what did the test say about COC(=O)c1cccc2c1Cc1cc(N)ccc1-2 ?
Response: class 0

Query: Hey, what did the test say about CC(=O)OCCOC1c2ccccc2-c2ccccc21 ?
Response: class 0

Query: Hey, what did the test say about CC(=O)OC[C@@]12CC[C@H]3C(C)(C)CCC[C@]3(C)[C@H]1C[C@@H](C1=CC(=O)O[C@H]1O)O2 ?
Response: class 1

Query: Hey, what did the test say about CC(SC(=S)SC(C)C(=O)O)C(=O)O (configuration not stated) ?
Response: class 0

* * *

assay.explanation: NCI Yeast Anticancer Drug Screen. Data for the mec2-1 strain (AID 157)
test.parameters: S. cerevisiae mec2-1 strain, at 50.0 µM, hits give high values
This is part of a sample that, as a whole, favours compounds with a hit. Of some 79,000 tested, about 15% had one in any assay.
Kindly supply the reported growth inhibition values for the records listed here.
# unit: % | format: bare number

Query: What value of growth inhibition has been recorded for this entry: CC1CC[N+](C)([B-](F)(F)F)CC1 (configuration not stated)
Response: 1.85

Query: What value of growth inhibition has been recorded for this entry: CC(=O)C1SCC[S+]1C (configuration not stated)
Response: -7.6

Query: What value of growth inhibition has been recorded for this entry: CC(C)c1cccc(C(C)C)c1NC(=O)OC1CCCCC1C (configuration not stated)
Response: -17.6

Query: What value of growth inhibition has been recorded for this entry: CC(C)=CCC(C)c1ccccn1 (configuration not stated)
Response: 5.5

Query: What value of growth inhibition has been recorded for this entry: CCC(=O)OCC[N+](C)(C)C
Response: -37.6

Query: What value of growth inhibition has been recorded for this entry: CN1CCN(P(=O)(c2ccccc2)N2CCN(C)CC2)CC1
Response: 7.85

Query: What value of growth inhibition has been recorded for this entry: Cc1cccc(C)c1NC(=O)Nc1cccc(O)c1
Response: 34.8

* * *

assay.explanation: NCI Yeast Anticancer Drug Screen. Data for the rad50 strain (AID 155);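 also: 0% = growth of vehicle-only cultures of the same strain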
test.parameters: S. cerevisiae rad50 strain growth inhibition; at 50.0 µM
This is part of a sample that, as a whole, favours compounds with a hit. Of some 79,000 tested, about 15% had one in any assay. Active and inactive are the calls of the source. Cut-off read from the data, not from the text of the source: active = growth inhibition above about 70%; inactive = the rest.
One label from this list, please: 1 (yes) (active), 0 (no) (inactive)

Query: Hey, what did the test say about NNc1cc(S(=O)(=O)O)cc(C(=O)O)c1O ?
Response: 0 (no)

Query: Hey, what did the test say about Fc1ccc(CSC(=S)Nc2ccc(I)cc2)cc1 ?
Response: 1 (yes)

Query: Hey, what did the test say about Nc1nc(N)c(N=Nc2ccc(S(=O)(=O)NC(=O)c3ccccc3)cc2)c(=O)[nH]1 ?
Response: 0 (no)

Query: Hey, what did the test say about CC1CC(C)(C)NC(C2CCC=CO2)O1 (stereo unspecified) ?
Response: 0 (no)

Query: Hey, what did the test say about Cc1ccc(Nc2nc3ccccc3nc2NS(=O)(=O)c2ccc(N)cc2)cc1 ?
Response: 0 (no)

Query: Hey, what did the test say about CCCCCCCCCCCCCCCCCCCCCCCCCCCCCCS(=O)(=O)Cl ?
Response: 0 (no)

Query: Hey, what did the test say about CCOC(=O)c1cc(O)cc(=O)n1C1OC(COC(=O)c2ccccc2)C(OC(=O)c2ccccc2)C1OC(=O)c1ccccc1 (stereo unspecified) ?
Response: 0 (no)

Query: Hey, what did the test say about CC1=N/C(=C\c2ccc([N+](=O)[O-])cc2)C(=O)O1 ?
Response: 0 (no)

Query: Hey, what did the test say about C[N+](C)(C)C=Nc1cccc2c1CCCC2 ?
Response: 0 (no)

Query: Hey, what did the test say about CCCCOC1NC(=O)Oc2ccccc21 (stereo unspecified) ?
Response: 0 (no)

Query: Hey, what did the test say about CC1=N/C(=C\c2ccc(N)cc2)C(=O)N1Nc1nnc(NN2C(=O)/C(=C/c3ccc(N)cc3)N=C2C)c2ccccc12 ?
Response: 0 (no)
